Data origin: PubChem BioAssay (NCI)

# System: NCI-H522 lung
# test-description: NCI tumour cell line growth inhibition, 48 h
For each of the molecules below, state its GI50.

Given the molecule O=C(O)c1cc(N/C=C2\C(=O)c3ccccc3OC2O)ccc1O (stereo not given) , write its reported GI50.
34.3 µg/mL

Given the molecule CCOC(=O)c1c[nH]c2c(OCc3ccccc3)c3ccccc3c(O)c2c1=O , write its reported GI50.
13.3 µM

Given the molecule Nc1ccccc1/C=N\Nc1ccccc1 , write its reported GI50.
> 100 µM

Given the molecule CC1(C)CC(=O)C2=C(C1)NC(SSC1=C(C#N)C(c3ccc(Br)cc3)C3=C(CC(C)(C)CC3=O)N1)=C(C#N)C2c1ccc(Br)cc1 (stereo not given) , write its reported GI50.
30 µg/mL

Given the molecule Cc1ccc(Cl)cc1Nc1nc(C(F)(F)F)ccc1C(=O)N/N=C/c1c(Cl)cccc1Cl , write its reported GI50.
1.77 µM

====

# Tested on: ACHN renal
# test-description: NCI tumour cell line growth inhibition, 48 h
observed-property: TGI

Given the compound Cn1c(=O)oc2cc(C(=S)N3CCC(Cc4ccccc4)CC3)ccc21 , write its reported TGI.
> 100 µM

Given the compound O=C(N1CCOCC1)C1(c2ccccc2)CCNCC1 , write its reported TGI.
> 100 µM

Given the compound Cc1ccc(Cl)cc1Nc1nc(C(F)(F)F)ccc1C(=O)N/N=C/c1c(Cl)cccc1Cl , write its reported TGI.
6.14 µM

====

# Tested on: KM12 colon
# test-description: NCI tumour cell line growth inhibition, 48 h
observed-property: GI50

Given the compound CCCn1cc(C2=C(c3cn(C)c4ccccc34)C(=O)NC2=O)c2ccccc21 , write its reported GI50.
1.14 µM

Given the compound Fc1ccc(CNc2c3ccccc3nc3ccccc23)cc1 , write its reported GI50.
3.27 µM

Given the compound O=C1Nc2ccccc2C1(c1ccc(O)c(F)c1)c1ccc(O)c(F)c1 , write its reported GI50.
3.07 µM

Given the compound Nc1ncnc2c1c(-c1cccc(OCc3ccccc3)c1)cn2C1CC(CN2CCCC2)C1 (stereo not given) , write its reported GI50.
1.93 µM

Given the compound CCOCCc1c(O)nc(SC)[nH]c1=O , write its reported GI50.
> 100 µM

====

# Test system: HOP-62 NSCLC
# test-description: NCI tumour cell line growth inhibition, 48 h
observed-property: TGI

With HOP-62 NSCLC as the test system, provide measured TGI for this molecule: Nc1ccccc1/C=N\Nc1ccccc1
> 100 µM

With HOP-62 NSCLC as the test system, provide measured TGI for this molecule: C#CC[C@@H]1C[C@]2(C)[C@H]3CC[C@@H]4[C@H]5[C@H](C(=C)C)CC[C@]5(C(=O)O)CC[C@@]4(C)[C@]3(C)CC[C@H]2C(C)(C)[C@H]1O
5.28 µM

With HOP-62 NSCLC as the test system, provide measured TGI for this molecule: Nc1ccc2cc(S(=O)(=O)O)cc(O)c2c1N=Nc1ccc(NC(=O)Nc2ccc(N=Nc3c(N)ccc4cc(S(=O)(=O)O)cc(O)c34)c(S(=O)(=O)O)c2)cc1S(=O)(=O)O
> 100 µM

With HOP-62 NSCLC as the test system, provide measured TGI for this molecule: CC(=O)OCc1cccc(O)c1C(=O)CCC=C(C)C
> 100 µM

With HOP-62 NSCLC as the test system, provide measured TGI for this molecule: CCOC(=O)C1(Cc2ccccc2)Cc2cc3c(cc2C1=O)CCC3 (stereo not given)
> 100 µM
